Target: serotonin (5-HT) reuptake (Rattus norvegicus)
Construct: synaptosomes are freshly isolated from areas of the rat brain; from tissue; host or cells: rat brain synaptosomes (P2 fraction)
Sequence (P31652 whole entry): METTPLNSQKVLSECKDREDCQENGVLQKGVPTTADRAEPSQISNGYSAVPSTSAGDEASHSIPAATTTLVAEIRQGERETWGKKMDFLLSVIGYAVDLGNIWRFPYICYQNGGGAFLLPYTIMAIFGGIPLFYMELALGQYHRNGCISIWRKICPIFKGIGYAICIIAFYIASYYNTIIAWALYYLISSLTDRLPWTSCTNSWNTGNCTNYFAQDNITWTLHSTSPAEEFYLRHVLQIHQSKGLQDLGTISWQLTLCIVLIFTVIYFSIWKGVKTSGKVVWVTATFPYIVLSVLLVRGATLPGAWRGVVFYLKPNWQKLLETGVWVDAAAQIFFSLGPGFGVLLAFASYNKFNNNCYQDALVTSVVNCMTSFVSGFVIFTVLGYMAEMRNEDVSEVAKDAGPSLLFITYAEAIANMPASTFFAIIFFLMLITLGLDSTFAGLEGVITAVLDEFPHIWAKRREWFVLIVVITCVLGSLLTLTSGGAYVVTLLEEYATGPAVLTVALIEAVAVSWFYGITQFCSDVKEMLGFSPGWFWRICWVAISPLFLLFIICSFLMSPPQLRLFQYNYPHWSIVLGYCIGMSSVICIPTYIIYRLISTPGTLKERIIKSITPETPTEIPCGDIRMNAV
Test: Inhibition of serotonin (5HT) reuptake in synaptosomes from rat brain
Format: biochemical
Conditions: test concentration of 10 μM; read-out: 5-HT (inhibition of reuptake of serotonin, % inhibition)
Method: Binding data of the compounds on the μ opioid receptor and data on the inhibition of reuptake of serotonin (5-HT) are given in Table 1. The data for the μ receptor were measured at a test concentration of 1 μM, and those for the serotonin reuptake at 10 μM. The values are stated in % inhibition. Inhibition of Serotonin (5HT) Reuptake In order to be able to carry out these in vitro studies, synaptosomes are freshly isolated from areas of the rat brain. […]
# binarize inhibition at 10 µM: threshold 90% inclusive, high side satisfied, low side not satisfied

In [3]: df
Out[3]:
                                    compound            cat
 0  COc1cc(C)c(S(=O)(=O)N2CCCC(OCC(=O)NCC3CCC(C(c4ccccc4)N(C)C)CC3)C2)c(C)c1C (stereo not drawn)      satisfied
 1  CC(Oc1ccccc1)C(=O)NCC1CCC(C(c2ccccc2)N(C)C)CC1 (stereo not drawn)  not satisfied
 2  CN(C)C(c1ccccc1)C1CCC(NC(=O)COCCN(C)S(=O)(=O)c2ccc(Cl)cc2Cl)CC1 (stereo not drawn)  not satisfied
 3  CN(C)C(c1ccccc1)C1CCC(CNC(=O)COCCN(Cc2ccccc2)S(=O)(=O)c2ccccc2)CC1 (stereo not drawn)      satisfied
 4  COc1cc(C)c(S(=O)(=O)N(C)CCOCC(=O)NC2CCC(C(c3cccs3)N(C)C)CC2)c(C)c1 (stereo not drawn)  not satisfied
 5  COc1cc(C)c(S(=O)(=O)N(C)CCOCC(=O)NCC2CCC(C(c3cccs3)N(C)C)CC2)c(C)c1 (stereo not drawn)  not satisfied
 6  Cc1ccc(S(=O)(=O)N2CCC(OCC(=O)NC3CCC(C(c4cccc(F)c4)N(C)C)CC3)C2)cc1 (stereo not drawn)  not satisfied
 7  CN(C)C(c1cccs1)C1CCC(NC(=O)COCCN(C)S(=O)(=O)c2ccc(F)cc2)CC1 (stereo not drawn)  not satisfied
 8  CN(C)C(c1cccc(F)c1)C1CCC(CCNC(=O)COCCN(C)S(=O)(=O)c2c(Cl)cc(Cl)cc2Cl)CC1 (stereo not drawn)      satisfied
 9  CN(C)C(c1cccc(F)c1)C1CCC(CCNC(=O)COCCN(C)S(=O)(=O)c2c(Cl)cccc2Cl)CC1 (stereo not drawn)  not satisfied
10  CN(C)C(c1cccs1)C1CCC(CNC(=O)COC2CCN(S(=O)(=O)c3cccc(C(F)(F)F)c3)C2)CC1 (stereo not drawn)  not satisfied
11  CN(C)C(c1cccs1)C1CCC(CNC(=O)COCC2CCCN(S(=O)(=O)c3ccccc3)C2)CC1 (stereo not drawn)      satisfied

----------
Target: bradykinin 1 receptor (B1R) of the rat (Rattus norvegicus, UniProt P97583)
Construct: expressed in transfected cells; host or cells: CHO K1 cells
Sequence (P97583 1-337): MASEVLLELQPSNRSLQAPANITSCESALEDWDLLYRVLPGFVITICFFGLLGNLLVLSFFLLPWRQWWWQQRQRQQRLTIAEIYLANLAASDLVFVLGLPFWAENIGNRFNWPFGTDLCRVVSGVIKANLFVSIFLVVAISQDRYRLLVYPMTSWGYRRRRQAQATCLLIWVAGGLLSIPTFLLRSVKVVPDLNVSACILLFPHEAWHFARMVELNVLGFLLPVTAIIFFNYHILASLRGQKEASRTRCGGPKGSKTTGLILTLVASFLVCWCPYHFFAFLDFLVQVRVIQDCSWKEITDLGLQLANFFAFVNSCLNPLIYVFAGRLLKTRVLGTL
Assay: Functional investigation on the rat bradykinin 1 receptor (B1R), Ca2+ FLIPR assay in CHO K1 rB1R cells
Type: cell-based
Conditions: B1R antagonism rat; test substance 10 μM; Ca2+ FLIPR, CHO K1 rB1R cells
readoutType: B1R Ant. r [10 μM] % Inhibition (%)

                                    molecule                      readouttype  recordedresult
 0  CCN(CCOCC(=O)NCCC1CCC(C(c2ccc(Cl)cc2)N(C)C)CC1)S(=O)(=O)c1c(C)cc(OC)c(C)c1C (centres unmarked)  B1R Ant. r [10 μM] % Inhibition              58
 1  CN(C)C(c1ccc(F)cc1)C1CCC(CNC(=O)COC2CCN(S(=O)(=O)c3cccc(C(F)(F)F)c3)C2)CC1 (centres unmarked)  B1R Ant. r [10 μM] % Inhibition              45
 2  CN(C)C(c1ccc(F)cc1)C1CCC(NC(=O)COC2CCCN(S(=O)(=O)c3ccccc3)C2)CC1 (centres unmarked)  B1R Ant. r [10 μM] % Inhibition             −20
 3  CN(C)C(c1cccc(F)c1)C1CCC(NC(=O)COCCN(C)S(=O)(=O)c2cccc(C(F)(F)F)c2)CC1 (centres unmarked)  B1R Ant. r [10 μM] % Inhibition              16
 4  CN(C)C(c1ccc(F)cc1)C1CCC(CCNC(=O)COCC2CCCN(S(=O)(=O)c3ccccc3)C2)CC1 (centres unmarked)  B1R Ant. r [10 μM] % Inhibition              22
 5  CN(C)C(c1ccc(Cl)cc1)C1CCC(CNC(=O)COCCC2CCN(S(=O)(=O)c3ccccc3)CC2)CC1 (centres unmarked)  B1R Ant. r [10 μM] % Inhibition              41
 6  Cc1cc(C)c(S(=O)(=O)N2CCC(OCC(=O)NC3CCC(C(c4ccc(F)cc4)N(C)C)CC3)C2)c(C)c1 (centres unmarked)  B1R Ant. r [10 μM] % Inhibition              32
 7  COc1ccc(S(=O)(=O)N2CCCCC2COCC(=O)NCC2CCC(C(CCc3ccccc3)N(C)C)CC2)cc1OC (centres unmarked) [Example 570]  B1R Ant. r [10 μM] % Inhibition               4
 8  COc1cc(C)c(S(=O)(=O)N(C)CCOCC(=O)NCCC2CCC(C(c3ccc(Cl)cc3)N(C)C)CC2)c(C)c1 (centres unmarked)  B1R Ant. r [10 μM] % Inhibition             101
 9  CN(CCOCC(=O)NC1CCC(C(c2ccccc2)N2CCCC2)CC1)S(=O)(=O)c1c(Cl)cc(Cl)cc1Cl (centres unmarked)  B1R Ant. r [10 μM] % Inhibition              57
10  CN(C)C(c1cccs1)C1CCC(CCNC(=O)COC2CCN(S(=O)(=O)c3ccccc3)CC2)CC1 (centres unmarked)  B1R Ant. r [10 μM] % Inhibition              −1

The values you see were collected from patent US8106055B2.
